Data credit: PubChem BioAssay (NCI)

- Tested on: EKVX NSCLC
- assay-comment: NCI-60 one-dose screen, 48 h
- condition-details: 10 µM unless noted
Compounds without any hit were thinned out: in the full panel of roughly 83,000, 20% have a hit. The source made the active and inactive calls. The calls were made as follows: active = growth percent below 10; inactive = the rest.
Choose one outcome from this list and give only that: T = active, F = inactive

compound	group-label
COc1ccccc1-n1c(-c2ccc(O)cc2C)cn2c3c(=O)[nH]c(=O)n(C)c3nc12	F
N#Cc1ccc(-c2csc(Nc3ccc4nc5n(c(=O)c4c3)CCC5)n2)cc1	F
CCOC1Oc2ccccc2C(=O)/C1=N/c1nccs1 (centres undefined)	F
O=C1c2cccc(NCCN=Cc3ccccc3O)c2C(=O)c2c(NCCN=Cc3ccccc3O)cccc21	F
Fc1ccccc1C1c2ccccc2-c2nccn21 (centres undefined)	F
Nc1ccc2c(c1Br)Cc1ccccc1-2	F
CN(C)c1ccc(-n2nc3ccccc3n2)cc1	F
Clc1ccc2[nH]cc(-c3cncn3CCc3ccccc3)c2c1	F
COc1ccc(CNC(=O)c2c(C)n([O-])c3cc(F)c(F)cc3[n+]2=O)cc1	F
CCSc1nc(-c2ccc(F)cc2)c(C#N)c(=O)[nH]1	F

Test call for this compound, please: Cc1sc2nc(NCc3ccccc3)[nH]c(=O)c2c1C
F

Same thing, different compound: COc1cc(-c2n[nH]nc2-c2ccccn2)cc(OC)c1OC
F

Same thing, different compound: COc1ccc(CNC(=O)c2c(C)n([O-])c3ccc(OC)cc3[n+]2=O)cc1
F

Same thing, different compound: C[C@H]1O[C@@H](O[C@H]2[C@@H](O)C[C@H](O[C@H]3[C@@H](O)C[C@H](O[C@H]4CC[C@]5(C)C6CC[C@]7(C)[C@@H](C8=CC(=O)OC8)CC[C@]7(O)C6CC[C@@H]5C4)O[C@@H]3C)O[C@@H]2C)C[C@H](O)[C@@H]1O (some centres undefined)
T

====

- System: A498 renal
- assay-comment: NCI-60 one-dose screen, 48 h
- condition-details: 10 µM unless noted
Compounds without any hit were thinned out: in the full panel of roughly 83,000, 20% have a hit. Activity calls are given as the source filed them. How the source made its calls: active means growth percent below 10; inactive means the rest.
Choose one outcome from this list and give only that: active, inactive

Consider the following illustrative entries.
compound	group-label
CC(C)CNc1nc(N=[N+]=[N-])nc(NCC(C)C)n1	inactive
COC(=O)[C@H]1[C@H]2C[C@@H]3c4[nH]c5cc(OC)ccc5c4CCN3C[C@H]2C[C@@H](OC(=O)/C=C/c2cc(OC)c(OC)c(OC)c2)[C@@H]1OC	inactive
O=C1C=CC(=O)N1c1ccccn1	inactive

Test call for this compound, please: O=C(CNC(=O)c1cccc2ccccc12)Nc1ccccc1Cc1ccccc1
inactive

Same thing, different compound: COc1ccc2ncccc2c1Cc1c(OC)ccc2ncccc12
inactive

Same thing, different compound: COc1ccc(N2CCN(CC(=O)N3CCN(c4nnc(-c5ccc(Cl)cc5)c(-c5ccc(Cl)cc5)n4)CC3)CC2)cc1
inactive

Same thing, different compound: CCCCCCCCCCNCCSS(=O)(=O)O
inactive

Same thing, different compound: COc1ccc(NC(=O)c2ccccc2-c2ccccc2)c(C(N)=O)c1
inactive

Same thing, different compound: COC(=O)C1=CCC(n2cnc3c(N)ncnc32)O1 (stereo not drawn)
inactive

====

What growth was measured for each of the following?
- System: SK-MEL-5 melanoma
- assay-comment: NCI-60 one-dose screen, 48 h (100 = growth as untreated, 0 = no growth, -100 = all killed)
- condition-details: 10 µM unless noted
- Description: Growth inhibition of the SK-MEL-5 human tumor cell line is measured as a screen for anti-cancer activity. Cells are grown in 96 well plates and exposed to the test compound for 48 hours. Compounds are tested at a single concentration, which is 10^-5 M for most compounds. The reported endpoint is percent growth (GI% or GIPRCNT), where numbers from 0 - 100% represent growth inhibition, and numbers from -100% - 0 represent cell death. For example, a value of 40 represents 60% growth inhibition. […]
About 83,000 compounds went through this panel and 20% of them were active in at least one assay; those are over-represented in the sample as a whole.
Give bare numbers, in %.

Recorded results for 4 compounds are shown here.
compound	growth [%]
O=C1NC(=S)S/C1=C\c1cc(Br)ccc1O	92.6
CC1CC=CCC1C1OCC(C)(C)CO1 (centres undefined)	104
CC(=O)O[C@H]1CC[C@@]2(C)C(=CC[C@@H]3[C@@H]2CC[C@]2(C)C(c4cccnc4)=CC[C@@H]32)C1	20.9
COc1ccc(CCN2C(=O)CCC3=C2CCCC3=O)cc1OC	99.1

Provide growth values for the following items, in order.
1. C/C(=C\CCc1ccsc1)CC/C=C(\C)CCCN1CCSCC1
2. CC(=O)N1N=C(c2ccc(Nc3ccnc4cc(Cl)ccc34)cc2)CC1c1ccc(Cl)cc1 (centres undefined)
3. COc1cc(-c2n[nH]nc2-c2ccccn2)cc(OC)c1OC
4. CC1CN(C2CCCCC2)C(=O)NC1=O (centres undefined)
5. CCCCCN(CCCCC)CCCNc1c2c(nc3ccc(Cl)cc13)CCCC2

1. 77.2
2. -50.1
3. 102
4. 105
5. 23.4
